B1: ALDH8A1 (parent)
chain: WSSRSPQERSRVLNQVADLLEQSL

Variants of: B1
experiment.description: protein stability index of a GFP-peptide fusion (GPS, HEK-293T) (PSI 1-6); higher = more stable;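 further: lentivirally expressed fusions sorted by FACS into six bins by GFP to DsRed ratio, PSI derived from sequencing read proportions per bin multiplied by bin number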
condition.parameters: c terminus: a fixed tail appended
Quick reference: protein stability index of the listed items.

Would you please look over these solved cases?
{"mutation.name": "A17N", "value.reported": 3.3}
{"mutation.name": "S23W", "value.reported": 1.94}
{"mutation.name": "D18S", "value.reported": 2.23}
{"mutation.name": "L13V", "value.reported": 3.13}
{"mutation.name": "E21P", "value.reported": 3.24}
{"mutation.name": "V16Y", "value.reported": 2.29}
{"mutation.name": "L19C", "value.reported": 3.14}
{"mutation.name": "V16N", "value.reported": 4.2}
{"mutation.name": "S2V", "value.reported": 2.76}
{"mutation.name": "R11N", "value.reported": 2.48}

Please give the measured protein stability index for this variant: S5K
2.52

// query protein stability index value for entry R11K
1.99

Would you kindly share the measured protein stability index for R11I ?
2.21

Recorded protein stability index of L24V , please.
2.29

So what does the record say about protein stability index for S23K ?
3.53

State the recorded protein stability index for this entry: S3V
2.78

# query: protein stability index of entry L19K
3.79
